# System: green foxtail
# procedure.text: Test C postemergence
# Type: in vivo, Setaria viridis
# condition.details: 500 g ai/ha, postemergence, 10 days, 0 to 100 scale (0 no effect, 100 complete control)

| molecule | Plant response rating, Foxtail, Green |
| --- | --- |
| CCOC[C@H]1CN(C(=O)c2cc(-n3cnc(C(C)C)n3)cc3c2OCO3)c2cccc(Cl)c2O1 | 40 |
| COC(C)(C)c1ncn(-c2ccc(C)c(C(=O)N3C[C@H](C)Oc4c(Cl)cccc43)c2)n1 | 90 |
| CCOc1ncn(-c2cccc(C(=O)N3C[C@H](C)Oc4c(Cl)cccc43)c2)n1 | 40 |
| CC(C)Oc1ncn(-c2cccc(C(=O)N3C[C@H](C)Oc4c(Cl)cccc43)c2)n1 | 20 |
| CCOC[C@H]1CN(C(=O)c2cc(-n3cnc(C(C)C)n3)cc3c2OCCO3)c2cccc(Cl)c2O1 | 80 |
| CC(C)c1ncn(-c2ccc([S+](C)[O-])c(C(=O)N3C[C@H](C)Oc4c(Cl)cccc43)c2)n1 (stereo partly shown) | 90 |
| Cc1ccc(-n2cnc(C3(C#N)CCC3)n2)cc1C(=O)N1C[C@H](C)Oc2c(Cl)cccc21 | 90 |
